In this section, each of the molecules is paired with its reported pIC50.
Tested on: IL-21
Assay: Human TH17 Cytokine Inhibition as measured by ELISA (IL-21)
Type: cell-based
Conditions: 72 h; human CD4+ T cells under TH17-polarizing conditions, 3 days, supernatant ELISA
pIC50: −log10 of the molar value.

O=C(C1CCCCC1)N1CCC(CN2CCc3cc(-c4cn[nH]c4)ccc32)CC1: > 5.00
CC(C)CNC(=O)N1CCC(CN2CCc3cc(-c4cn[nH]c4)ccc32)C1 (centres unmarked): > 5.00
O=C(Cc1ccccc1)N1CCCC(CN2CCc3cc(-c4cn[nH]c4)ccc32)CC1 (centres unmarked): > 5.00
CC(C)C(=O)N1CCC(CN2CCc3cc(-c4cn[nH]c4)ccc32)C1 (centres unmarked): > 5.00
O=C(CCc1ccccc1)N1CCC(CN2CCc3cc(-c4cn[nH]c4)ccc32)CC1: > 5.00

IN: For the molecule O=C(CCCc1ccccc1)N1CCC(CN2CCCc3cc(-c4cn[nH]c4)ccc32)CC1 , what pIC50 is on record?
OUT: < 5.00

IN: Also CC(C)C(=O)N1CCC(CN2CCc3cc(-c4cn[nH]c4)ccc32)CC1 , if possible.
OUT: < 5.00

IN: Also Cn1cc(-c2ccc3c(ccn3CC3CCN(C(=O)CCc4ccccc4)CC3)c2)nn1 , if possible.
OUT: > 5.00
